Where do these numbers come from? They come from ChEMBL document CHEMBL3425497.

ASSAY_NAME: Clearance in male Sprague-Dawley rat at 0.25 mg/kg, iv
Type: ADME, organism-based
Design: dose 0.25 mg/kg, route intravenous
CONDITION_CONTEXT: in vivo
MEASUREMENT_NAME: clearance (mL/min/kg)

>>> value_measured("COc1cc(NC(=O)CCN2CCC(OC(=O)Nc3ccccc3-c3ccccc3)CC2)c(Cl)cc1CNC[C@H](O)c1ccc(O)c2[nH]c(=O)ccc12")
75.3

---

TARGET_DESC: Muscarinic acetylcholine receptor M3 (Homo sapiens)
Sequence (P20309 whole entry): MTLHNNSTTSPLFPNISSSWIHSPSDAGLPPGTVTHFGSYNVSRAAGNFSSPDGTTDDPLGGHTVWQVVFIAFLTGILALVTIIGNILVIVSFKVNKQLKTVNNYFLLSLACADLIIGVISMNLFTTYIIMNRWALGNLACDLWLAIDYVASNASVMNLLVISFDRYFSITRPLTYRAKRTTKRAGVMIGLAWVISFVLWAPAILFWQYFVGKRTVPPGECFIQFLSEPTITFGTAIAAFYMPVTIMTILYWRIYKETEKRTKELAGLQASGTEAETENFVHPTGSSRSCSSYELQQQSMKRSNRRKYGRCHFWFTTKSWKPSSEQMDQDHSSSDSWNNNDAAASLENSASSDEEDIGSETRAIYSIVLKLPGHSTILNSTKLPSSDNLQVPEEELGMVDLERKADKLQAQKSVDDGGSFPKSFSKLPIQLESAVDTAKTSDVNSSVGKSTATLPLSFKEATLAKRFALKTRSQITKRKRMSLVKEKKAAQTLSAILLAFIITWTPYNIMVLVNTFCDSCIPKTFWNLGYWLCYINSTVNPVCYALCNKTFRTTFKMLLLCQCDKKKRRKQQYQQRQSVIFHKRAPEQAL
Readings of Ki for the listed compounds
MEASUREMENT_NAME: Ki (nM)

>>> value_measured("COc1ccc(CCNC[C@H](O)c2ccc(O)c3[nH]c(=O)ccc23)cc1NC(=O)CCN1CCC(OC(=O)Nc2ccccc2-c2ccccc2)CC1")
7.94
>>> value_measured("COc1cc(NC(=O)CCN2CCC(OC(=O)Nc3ccccc3-c3ccccc3)CC2)c(Cl)cc1CNC[C@H](O)c1ccc(O)c2[nH]c(=O)ccc12")
2
>>> value_measured("COc1cc(N(C)C(=O)CCN2CCC(OC(=O)Nc3ccccc3-c3ccccc3)CC2)c(Cl)cc1CNC[C@H](O)c1ccc(O)c2[nH]c(=O)ccc12")
0.316
>>> value_measured("Cc1cc(C(=O)NCCN2CCC(OC(=O)Nc3ccccc3-c3ccccc3)CC2)c(C)cc1CNC[C@H](O)c1ccc(O)c2[nH]c(=O)ccc12")
3.16
>>> value_measured("O=C(CCN1CCC(OC(=O)Nc2ccccc2-c2ccccc2)CC1)N[C@H]1CC[C@H](CNC[C@H](O)c2ccc(O)c3[nH]c(=O)ccc23)CC1")
0.316
>>> value_measured("O=C(CCN1CCC(OC(=O)Nc2ccccc2-c2ccccc2)CC1)Nc1ccc(CNC[C@H](O)c2ccc(O)c3[nH]c(=O)ccc23)cc1")
0.0794
